Origin of the recorded values: paper PMC13183915

- Tested on: 36th Passage S.aureus ATCC 29213 in the presence of Pt-1
- ASSAY INFO: microbe, parasite or virus in culture
- Type: cell-based
- ASSAY CONTEXT: Staphylococcus aureus, ATCC29213
- Procedure: The MICs of the passaged cultures were determined every 3 days and compared to that of wild type S. aureus ATCC 29213. MIC changes were recorded for 36 passages.
Kindly supply the reported MIC values for the records listed here.
Give bare numbers, in µg/mL.

Below, each entry is followed by its recorded MIC result.
COMPOUND	UNITS OF MEASURE	DATA VALUE
CN[C@H](CC(C)C)C(=O)N[C@H]1C(=O)N[C@@H](CC(N)=O)C(=O)N[C@H]2C(=O)N[C@H]3C(=O)N[C@H](C(=O)N[C@H](C(=O)O)c4cc(O)cc(O)c4-c4cc3ccc4O)[C@H](O)c3ccc(c(Cl)c3)Oc3cc2cc(c3O[C@@H]2O[C@H](CO)[C@@H](O)[C@H](O)[C@H]2O[C@H]2C[C@](C)(N)[C@H](O)[C@H](C)O2)Oc2ccc(cc2Cl)[C@H]1O	µg/mL	1
CN(C)c1ccc(O)c2c1C[C@H]1C[C@H]3[C@H](N(C)C)C(O)=C(C(N)=O)C(=O)[C@@]3(O)C(O)=C1C2=O	µg/mL	0.125
CC(=O)NC[C@H]1CN(c2ccc(N3CCOCC3)c(F)c2)C(=O)O1	µg/mL	2
CCCCCCCCCC(=O)N[C@@H](Cc1c[nH]c2ccccc12)C(=O)N[C@H](CC(N)=O)C(=O)N[C@@H](CC(=O)O)C(=O)N[C@@H]1C(=O)NCC(=O)N[C@@H](CCCN)C(=O)N[C@@H](CC(=O)O)C(=O)N[C@H](C)C(=O)N[C@@H](CC(=O)O)C(=O)NCC(=O)N[C@H](CO)C(=O)N[C@@H]([C@H](C)CC(=O)O)C(=O)N[C@@H](CC(=O)c2ccccc2N)C(=O)O[C@@H]1C	µg/mL	1
C[C@@H](O)[C@H]1C(=O)N2C(C(=O)O)=C(S[C@@H]3CN[C@H](C(=O)N(C)C)C3)[C@H](C)[C@H]12	µg/mL	0.25

Here is another compound to look at.
// field: MIC; key: CNC(C)C1CCC(N)C(OC2C(N)CC(N)C(OC3OCC(C)(O)C(NC)C3O)C2O)O1 (stereo not drawn) ; value = 0.5
